test: Thermostability, temperature of aggregation (ProteoStat Thermal Shift); assay type: physicochemical; conditions: Table E31D; heated 25° C. to 95° C.
OBSERVATION_TYPE: Tagg (pH 7.1)
Give only the figure.

Look up and report measured Tagg (pH 7.1) for this entry: SEQID-00606: protein of the 168 nutritive polypeptide library (protein, Glycine max, protein of the 168 nutritive polypeptide library) MASEGDHHHHHHHHQDHDHHHHDHDHHHHHDGEGETNSWVGKDGKVYHSHDGLAPHSHEPIYSPGYFTRRAPPLLNRNFNERAFTVGIGGPVGTGKTALMLALCELLRENYSLAAVTNDIFTKEDGEFLVKHKALPEERIRAVETGGCPHAAIREDISINLGPLEELSNLFKADILLCESGGDNLAANFSRELADYIIYIIDVSGGDKIPRKGGPGITQADLLVINKTDLAPAIGADLAVMQRDALRMRDGGPFVFAQVKHKIGVEEIGNLVLQAWEAATGNKRH
95

Tell me its Tagg (pH 7.1) given SEQID-00305: nutritive polypeptide (protein, listed as Bos taurus) MPHQYPALTPEQKKELCDIAHRIVAPGKGILAADESTGSIAKRLQSIGTENTEENRRFYRQLLLTADDRVNPCIGGVILFHETLYQKADDGRPFPQVIKAKGGVVGIKVDKGVVPLAGTNGETTTQGLDGLSERCAQYKKDGADFAKWRCVLKIGEHTPSSLAIMENANVLARYASICQQNGIVPIVEPEILPDGDHDLKRCQYVTEKVLAAVYKALSDHHIYLEGTLLKPNMVTPGHACTQKYSHEEIAMATVTALRRTVPPAVPGITFLSGGQSEEEASINLNAINKCPLLKPWALTFSYGRALQASALKAWGGKKENLKAAQEEYVKRALANSLACQGKYTPSGKAGAAASESLFISNHAY as the entry.
48

In one line, give reported Tagg (pH 7.1) of the entry SEQID-00510: nutritive polypeptide naturally produced in Turkey, recombinantly expressed in E. coli (protein, Meleagris gallopavo, nutritive polypeptide naturally produced in Turkey, recombinantly expressed in E. coli) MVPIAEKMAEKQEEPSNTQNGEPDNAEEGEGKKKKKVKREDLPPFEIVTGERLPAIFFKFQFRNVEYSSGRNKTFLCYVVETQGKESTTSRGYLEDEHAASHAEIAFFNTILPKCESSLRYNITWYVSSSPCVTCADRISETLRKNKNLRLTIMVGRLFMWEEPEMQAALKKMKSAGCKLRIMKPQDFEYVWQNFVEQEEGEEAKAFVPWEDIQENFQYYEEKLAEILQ .
57.5
